ASSAYED SYSTEM: Cytochrome P450 2C19 (Homo sapiens) (UniProt P33261)
Sequence (P33261 whole entry, looked up): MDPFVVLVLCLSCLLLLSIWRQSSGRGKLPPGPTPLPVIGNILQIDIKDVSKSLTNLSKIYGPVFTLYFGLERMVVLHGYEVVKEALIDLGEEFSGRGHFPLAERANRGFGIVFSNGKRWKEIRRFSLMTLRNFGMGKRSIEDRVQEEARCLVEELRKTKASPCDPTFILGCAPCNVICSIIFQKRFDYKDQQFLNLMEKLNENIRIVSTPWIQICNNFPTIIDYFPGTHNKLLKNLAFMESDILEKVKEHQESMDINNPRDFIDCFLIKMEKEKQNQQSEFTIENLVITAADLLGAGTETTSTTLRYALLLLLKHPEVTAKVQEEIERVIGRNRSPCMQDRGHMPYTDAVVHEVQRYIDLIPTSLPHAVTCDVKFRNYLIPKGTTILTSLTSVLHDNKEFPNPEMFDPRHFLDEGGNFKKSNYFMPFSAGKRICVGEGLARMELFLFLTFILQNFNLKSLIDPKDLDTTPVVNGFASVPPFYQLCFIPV
PROTOCOL: qHTS Assay for Inhibitors and Substrates of Cytochrome P450 2C19 (AID 899); note: nearly all actives have a fitted effect of over 60% in size
ASSAY SETUP: recombinant CYP2C19, luciferin-H EGE luminescence; series mostly up to 57.1 µM
Records with an inconclusive call do not appear. Calls of active or inactive are those of the source. Calls come from the whole dose curve; as a rule, active = well fitted inhibition curve with a large enough effect; inconclusive = small, poorly fitted or top-dose-only effect; inactive = no such curve, though single readings can be large or run the other way.
The reply should be one of these categories: active, inactive

> print(dat)
                                   compound  group.label
1  CN(CCc1ccc(Cl)c(Cl)c1)C[C@@H](O)COc1ccc(NS(C)(=O)=O)cc1       active
2  Nc1nc(Nc2ccccc2)nc2c1ncn2[C@@H]1O[C@@H](CO)[C@H](O)[C@H]1O       active
3  CCc1cc2c(c(CC)n1)CCC(=O)N2Cc1ccc(-c2ccccc2-c2nn[nH]n2)cc1       active
4      COc1ccc(-c2ccc(=N)n(CCCC(=O)O)n2)cc1       active
5                 CC1(C)CO[C@H](CC(=O)O)CN1       active

How was "NCCCCCCNS(=O)(=O)c1cccc2c(Cl)cccc12" classified in this test? active

How was "CC[N+](C)(CC)CCC[n+]1c(-c2ccccc2)c2cc(N)ccc2c2ccc(N)cc21" classified in this test? active

How was "CN(C)CCCSc1ccccc1NC(=O)/C=C\c1ccccc1" classified in this test? inactive

How was CCCCCCC1=Cc2cc(OC)c(OC)cc2C(C(C(C)=O)C(=O)OCC)O1 (centres undefined) classified in this test? active

How was "NC(N)=Nc1ccc(Cl)cc1" classified in this test? inactive

These data points were gathered from PubChem BioAssay (NCATS).
